System: DMS-273
Experiment: NCI tumour cell line growth inhibition, 48 h
Active and inactive are the calls of the source. Rule as the data show it: active = GI50 up to about 1.1 µM and inactive = higher.
Possible outcomes: active, inactive

{"molecule": "Cn1c2cc([N+](=O)[O-])ccc2c(=O)c2c(O)cc3c(c21)C=CC(C)(C)O3", "class-assignment": "inactive"}
{"molecule": "CCOC(=O)C(NC(=O)c1ccc(/N=N/N(C)C)cc1)C(C)C (stereo unspecified)", "class-assignment": "inactive"}
{"molecule": "c1ccc(P(=Nc2ccccc2N=P(c2ccccc2)(c2ccccc2)c2ccccc2)(c2ccccc2)c2ccccc2)cc1", "class-assignment": "active"}
{"molecule": "C=C1C(=O)C23C(O)C1CCC2C12CO[C@]3(O)[C@@H](O)C1C(C)(C)CCC2O (stereo partly specified)", "class-assignment": "inactive"}
{"molecule": "COc1ccc(/C(C#N)=C2/O/C(=N/N)C(c3ccc(OC)c(OC)c3)C2=O)cc1OC (stereo unspecified)", "class-assignment": "inactive"}
{"molecule": "Cc1cc2c(c(C(N)=O)c1C)-c1cc(Cl)cc(Cl)c1C2=O", "class-assignment": "inactive"}
{"molecule": "CC1(O)CC2(O)C=CC3=C(C(=O)c4cccc(O)c4C3=O)C2(O)C(=O)C1O (stereo unspecified)", "class-assignment": "inactive"}
{"molecule": "Cc1ccc(/C=C/C(=O)c2sc(-c3cccnc3)nc2C)cc1", "class-assignment": "inactive"}
{"molecule": "CS(=O)(=O)OCCN(CCOS(C)(=O)=O)c1ccc(/C=N/N=c2/nc[nH]c3nc[nH]c23)cc1", "class-assignment": "inactive"}
{"molecule": "c1ccc2c(c1)nnn1c3cnccc3nc21", "class-assignment": "inactive"}
{"molecule": "CCOc1ccc(NC(=O)C(=O)C(C(=O)c2ccc3ccccc3c2)C2OC(=O)c3ccccc32)cc1 (stereo unspecified)", "class-assignment": "inactive"}
{"molecule": "COC(=O)c1cc(Cl)ccc1NC(=O)c1ccc([N+](=O)[O-])cc1", "class-assignment": "inactive"}
{"molecule": "COc1ccc(/C(=N/Nc2ccccc2)C(c2ccc(OC)cc2)C2OC(=O)c3ccccc32)cc1 (stereo unspecified)", "class-assignment": "inactive"}
{"molecule": "CCOC(=O)[C@H]1Nc2ccc(OC)cc2C2c3ccccc3CC21 (stereo partly specified)", "class-assignment": "inactive"}
{"molecule": "[N-]=[N+]=NC12CC3C4CC5CC3C(C1)C(C5)C4C2", "class-assignment": "inactive"}
{"molecule": "Cc1nc2c(n1CC(C)(C)C)C(=O)c1ccccc1C2=O", "class-assignment": "inactive"}
